target: Poly [ADP-ribose] polymerase 1 (Homo sapiens); test: Inhibition of PARP1 (unknown origin) using histone as substrate incubated for 60 mins by ELISA
Sequence (P09874 whole entry): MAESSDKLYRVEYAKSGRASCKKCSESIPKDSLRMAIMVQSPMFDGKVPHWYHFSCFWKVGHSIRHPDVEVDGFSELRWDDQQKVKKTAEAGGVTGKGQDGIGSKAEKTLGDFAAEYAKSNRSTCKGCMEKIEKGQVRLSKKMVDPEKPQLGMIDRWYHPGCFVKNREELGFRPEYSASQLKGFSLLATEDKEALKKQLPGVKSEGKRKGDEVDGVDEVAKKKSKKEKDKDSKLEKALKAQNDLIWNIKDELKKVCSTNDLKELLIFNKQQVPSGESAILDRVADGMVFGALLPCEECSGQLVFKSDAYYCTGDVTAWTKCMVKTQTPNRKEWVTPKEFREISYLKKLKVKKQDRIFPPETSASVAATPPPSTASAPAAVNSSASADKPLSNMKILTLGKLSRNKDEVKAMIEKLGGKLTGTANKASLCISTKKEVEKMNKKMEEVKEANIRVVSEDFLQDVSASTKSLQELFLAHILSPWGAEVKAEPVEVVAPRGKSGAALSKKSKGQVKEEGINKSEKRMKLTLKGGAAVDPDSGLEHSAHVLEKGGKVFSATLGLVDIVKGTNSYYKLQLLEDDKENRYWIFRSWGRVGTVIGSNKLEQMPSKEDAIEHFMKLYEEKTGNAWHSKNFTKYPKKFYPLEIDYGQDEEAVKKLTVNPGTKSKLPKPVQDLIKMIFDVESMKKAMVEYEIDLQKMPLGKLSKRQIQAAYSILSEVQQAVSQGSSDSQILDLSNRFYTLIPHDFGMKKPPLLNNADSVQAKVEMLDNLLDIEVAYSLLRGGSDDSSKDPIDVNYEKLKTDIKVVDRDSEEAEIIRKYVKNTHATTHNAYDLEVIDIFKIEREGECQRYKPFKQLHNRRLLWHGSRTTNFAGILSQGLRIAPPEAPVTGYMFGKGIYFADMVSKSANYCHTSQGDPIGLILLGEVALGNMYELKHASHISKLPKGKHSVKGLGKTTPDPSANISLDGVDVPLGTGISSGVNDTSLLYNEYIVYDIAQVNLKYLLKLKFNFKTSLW
REPORTED METRIC: pIC50
The meaning of pIC50 here: minus log10 of the concentration in molar units.

{"columns": ["STRUCTURE", "REPORTED VALUE"],
 "data": [
  ["O=C(c1cc(Cc2n[nH]c(=O)c3ccccc23)ccc1F)N1CCNCC1", 7.40]
]}

Could you now look at the following compound, please?
Looking up COc1cc(OC)c(/C=C/S(=O)(=O)Cc2ccc(OC)c(NCCCC(=O)N3CCN(C(=O)c4cc(Cc5n[nH]c(=O)c6ccccc56)ccc4F)CC3)c2)c(OC)c1 , I found its pIC50 recorded as 6.95
